assay_comment: in vivo
run_conditions: male, SD, rat
assay_readout: AUC(0-inf) (ng·h/mL)
Express the result in ng·h/mL but write the number alone.

Lab book: AUC(0-inf) of COc1ccc(-c2c(-c3ccc(C#N)c(F)c3)nc(N3C4CCC3CC(N)C4)n3ccnc23)cc1F (centres unmarked) [Example 120] noted as 310

Lab book: AUC(0-inf) of Cc1noc2cc(-c3c(-c4ccc(C#N)c(F)c4)nc(N4C5CCC4CC(N)C5)n4ccnc34)c(F)cc12 (centres unmarked) [Example 118] noted as 192

====

study_target: voltage-gated potassium ion channel hERG (Homo sapiens (Human), UniProt Q12809)
Sequence (Q12809 whole entry): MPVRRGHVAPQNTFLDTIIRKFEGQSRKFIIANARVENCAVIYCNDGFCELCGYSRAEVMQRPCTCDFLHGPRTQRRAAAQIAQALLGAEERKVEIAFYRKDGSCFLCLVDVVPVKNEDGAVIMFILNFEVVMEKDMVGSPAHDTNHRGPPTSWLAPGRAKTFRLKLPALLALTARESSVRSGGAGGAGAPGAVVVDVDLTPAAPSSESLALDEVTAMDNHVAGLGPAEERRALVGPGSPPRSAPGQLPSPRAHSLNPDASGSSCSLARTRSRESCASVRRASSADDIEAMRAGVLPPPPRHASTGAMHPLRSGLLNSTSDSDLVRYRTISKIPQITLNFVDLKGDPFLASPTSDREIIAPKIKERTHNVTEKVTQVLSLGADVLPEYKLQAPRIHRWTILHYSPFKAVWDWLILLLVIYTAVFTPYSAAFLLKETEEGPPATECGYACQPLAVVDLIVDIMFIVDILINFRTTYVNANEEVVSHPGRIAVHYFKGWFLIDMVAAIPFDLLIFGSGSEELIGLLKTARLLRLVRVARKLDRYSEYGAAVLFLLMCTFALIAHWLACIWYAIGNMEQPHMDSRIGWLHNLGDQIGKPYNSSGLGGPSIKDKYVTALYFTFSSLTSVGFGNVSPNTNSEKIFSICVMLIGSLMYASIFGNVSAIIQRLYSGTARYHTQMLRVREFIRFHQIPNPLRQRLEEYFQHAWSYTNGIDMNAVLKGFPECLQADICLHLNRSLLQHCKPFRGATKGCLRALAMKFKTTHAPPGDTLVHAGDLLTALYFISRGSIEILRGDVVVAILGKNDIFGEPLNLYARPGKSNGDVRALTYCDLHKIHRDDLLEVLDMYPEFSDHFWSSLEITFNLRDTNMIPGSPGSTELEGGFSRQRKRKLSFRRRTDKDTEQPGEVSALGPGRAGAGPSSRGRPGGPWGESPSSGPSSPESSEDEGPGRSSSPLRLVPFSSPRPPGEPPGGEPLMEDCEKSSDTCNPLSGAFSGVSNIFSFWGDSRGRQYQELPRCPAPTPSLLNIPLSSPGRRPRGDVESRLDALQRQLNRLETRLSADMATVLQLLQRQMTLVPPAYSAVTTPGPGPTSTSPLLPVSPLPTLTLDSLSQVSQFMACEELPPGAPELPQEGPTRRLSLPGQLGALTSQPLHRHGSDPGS
assay_comment: hERG inhibition test (manual patch-clamp)
run_conditions: read-out: hERG IC50; manual patch-clamp
pIC50: −log10 of the molar value.
So basically: pIC50 at 5 or higher? That is yes (1). Lower than 5? That is no (0).

Dear colleague, could you confirm whether `O=C(NC1CCOCC1)c1cc(CN[C@@H]2C[C@H]2c2ccc(F)cc2)nc(-c2ccc(-n3cccn3)cc2)n1` has pIC50 at or above 5?
yes (1)

Dear colleague, could you confirm whether `COc1ccc(-c2c(O)cc(N3CCC(C)(N)CC3)nc2-c2ccc(C#N)c(F)c2)cc1F` has pIC50 at or above 5?
no (0)

Dear colleague, could you confirm whether `CS(=O)(=O)N1CCN(C(=O)c2cc(CN[C@@H]3C[C@H]3c3ccc(F)cc3)nc(-c3ccc(-n4cccn4)cc3)n2)CC1` has pIC50 at or above 5?
yes (1)

Dear colleague, could you confirm whether `N#Cc1ccc(-c2nc(N3CCC(N)CC3)n3ccnc3c2-c2ccc(F)c(O)c2)cc1F` has pIC50 at or above 5?
no (0)

Dear colleague, could you confirm whether `COc1ccc(-c2c(-c3ccc(C#N)c(F)c3)nc(N3CCC(N)CC3)n3ccnc23)cc1O` has pIC50 at or above 5?
no (0)

====

assay_comment: Caco-2 permeability test
run_conditions: human, Caco-2
Structures can show the parent of a compound that is named as a salt.
assay_readout: Papp A→B at 120 min (×10⁻⁶ cm/s)
Express the result in ×10⁻⁶ cm/s but write the number alone.

Lab book: Papp A→B at 120 min of COc1ccc(-c2c(-c3ccc(C#N)c(F)c3)nc(N3CCC(N)CC3)n(C)c2=O)cc1F [(CC90011), reference compound] noted as 7.26

Lab book: Papp A→B at 120 min of Cc1noc2cc(-c3c(-c4ccc(C#N)c(F)c4)nc(N4CCC(N)CC4)n4ccnc34)c(F)cc12 [Example 125] noted as 4.27

Lab book: Papp A→B at 120 min of COc1ccc(-c2c(-c3ccc(C#N)c(F)c3)nc(N3CCC(N)CC3)n3ccnc23)cc1O [Example 124] noted as 1.73

Lab book: Papp A→B at 120 min of Cc1ccc(-c2nc(CN[C@@H]3C[C@H]3c3ccc(F)cc3)cc(C(=O)NC3CCOCC3)n2)cc1O [Example 236] noted as 1.44

Lab book: Papp A→B at 120 min of CS(=O)(=O)N1CCN(C(=O)c2cc(CN[C@@H]3C[C@H]3c3ccc(F)cc3)nc(-c3ccc(-n4cccn4)cc3)n2)CC1 [Example 2] noted as 15

Lab book: Papp A→B at 120 min of COc1ccc(-c2c(OC)cc(N3CCC(N)CC3)nc2-c2ccc(C#N)c(F)c2)cc1F [Example 87] noted as 2.97

Lab book: Papp A→B at 120 min of COc1ccc(-c2c(O)cc(N3CCC(N)CC3)nc2-c2ccc(C#N)c(F)c2)cc1F [Example 11, formate] noted as 3.66

Lab book: Papp A→B at 120 min of CS(=O)(=O)N1CCN(C(=O)c2cc(CCN[C@@H]3C[C@H]3c3ccc(F)cc3)nc(-c3ccc(-n4cccn4)cc3)n2)CC1 [Example 12] noted as 5.95

Lab book: Papp A→B at 120 min of O=C(NC1CCOCC1)c1cc(CN[C@@H]2C[C@H]2c2ccc(F)cc2)nc(-c2ccc(N3CCOCC3)cc2)n1 [Example 246, hydrochloride] noted as 3.59
